The values you see were collected from PubChem BioAssay.

STUDY SYSTEM: Homeobox protein Hox-A13 (Mus musculus) (UniProt Q62424)
Sequence (Q62424 whole entry, looked up): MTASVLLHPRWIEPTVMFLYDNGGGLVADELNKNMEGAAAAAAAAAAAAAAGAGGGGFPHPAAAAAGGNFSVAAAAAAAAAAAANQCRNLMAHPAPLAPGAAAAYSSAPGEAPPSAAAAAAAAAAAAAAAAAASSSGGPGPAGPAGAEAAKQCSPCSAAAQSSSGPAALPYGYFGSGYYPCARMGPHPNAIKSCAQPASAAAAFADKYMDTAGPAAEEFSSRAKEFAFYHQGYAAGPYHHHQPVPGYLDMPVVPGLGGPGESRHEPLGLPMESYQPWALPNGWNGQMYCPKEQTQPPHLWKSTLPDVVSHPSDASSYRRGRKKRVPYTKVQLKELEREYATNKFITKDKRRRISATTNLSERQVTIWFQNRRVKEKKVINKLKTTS
PROTOCOL SUMMARY: inhibitors of HoxA13-DNA binding, primary screen, biochemical, fluorescence polarization, labeled oligonucleotide (AID 1185)
CONDITIONS: 15 min, higher = more signal, called active from +8 up or from −8 down
The source made the active and inactive calls.
Reported z-score values follow for various molecules

{"MOLECULE": "O=C(c1ccccc1)N1C(=O)[C@@]2(Cc3ccccc31)N=C(c1ccc(OCCCO)cc1)O[C@H]2c1ccccc1", "z-score": "-5.9 (inactive)"}

Documented z-score of `CC(C)C[C@@H]1NC(=O)[C@@H]2C[C@H](C(=O)O)[C@H](c3cccc(OCCO)c3)N2C1=O` : -2.76 (inactive)

Documented z-score of `NC(=O)NCC#Cc1ccc2c(c1)[C@]1(C(=O)N2)[C@H](c2ccccc2OCCO)N2[C@H](c3ccccc3)[C@H](c3ccccc3)OC(=O)[C@H]2[C@@H]1C(=O)Nc1nc2ccccc2s1` : 1.61 (inactive)

Documented z-score of `NC(=O)NCC#Cc1ccc2c(c1)[C@]1(C(=O)N2)[C@H](c2ccc(O)cc2)N2[C@H](c3ccccc3)[C@H](c3ccccc3)OC(=O)[C@H]2[C@@H]1C(=O)O` : -5.27 (inactive)

Documented z-score of C=CCC(OC(C)=O)[C@@H]1[C@@H](N(Cc2ccc(-c3ccccc3)cc2)C(=O)c2cccc3ccccc23)c2cc(OCCCO)ccc2N1C(=O)c1ccc(-c2ccccc2)cc1 (stereo partly specified) : -1.22 (inactive)

Documented z-score of `CN(C)CCCCCCNC(=O)[C@H]1C[C@H]2C(=O)N[C@@H](CCCCN)C(=O)N2[C@H]1c1cccc(OCCO)c1` : -2.01 (inactive)

Documented z-score of `COC(=O)C(CC#Cc1ccc2c(c1)[C@]1(C(=O)N2)[C@H](c2ccc(OCCO)cc2)N2[C@H](c3ccccc3)[C@H](c3ccccc3)OC(=O)[C@H]2[C@@H]1C(=O)Nc1nc2ccccc2s1)C(=O)OC` : 0.63 (inactive)

Documented z-score of `C=C(CCCC)/C(=C/C[C@H](OC(C)=O)c1ccccc1OCCO)c1cc(C(=O)OC)ccc1OC` : -3.55 (inactive)

Documented z-score of `COCCOC(=O)N1C(=O)[C@@]2(c3ccccc31)[C@H](C(=O)N1CCc3cc(OC)c(OC)cc3C1)[C@H]1C(=O)O[C@H](c3ccccc3)[C@H](c3ccccc3)N1[C@@H]2c1ccc(OCCO)cc1` : 1.9 (inactive)

Documented z-score of `COCCOC(=O)N1C(=O)[C@@]2(c3cc(C#CCC(C(=O)OC)C(=O)OC)ccc31)[C@H](c1ccccc1OCCO)N1[C@H](c3ccccc3)[C@H](c3ccccc3)OC(=O)[C@H]1[C@@H]2C(=O)N1CCN(c2ncccn2)CC1` : 0.271 (inactive)

Documented z-score of `COC(=O)[C@@]1(Cc2ccc(F)cc2)[C@H]2c3cc(C(=O)N4CCCC4)n(CCCNc4ncc(C(F)(F)F)cc4Cl)c3C[C@H]2CN1C(=O)c1ccccc1` : -4.2 (inactive)

Documented z-score of CC(=O)n1cc(C(O)C2C=CC3C(=O)N(c4ccccc4)C(=O)C3N2Nc2ccc([N+](=O)[O-])cc2)c2ccccc21 (stereo unspecified) : -4.3 (inactive)

Documented z-score of CCC(CC)C(O)C1C=CC2C(=O)NC(=O)C2N1Nc1ccc(Cl)cc1Cl (stereo unspecified) : -4.8 (inactive)

Documented z-score of `C=CCOC(=O)[C@@H]1[C@H]2C(=O)O[C@H](c3ccccc3)[C@H](c3ccccc3)N2[C@H](c2ccc(OCCOC(=O)[C@H]3C[C@H]4C(=O)N5CCC[C@H]5C(=O)N4[C@H]3c3ccc(O)cc3)cc2)[C@@]12C(=O)Nc1ccc(I)cc12` : 1.53 (inactive)

Documented z-score of `CO[C@H]1O[C@H](CO)[C@@H](OC(=O)Nc2ccc(Oc3ccccc3)cc2)[C@H](OC(=O)Nc2ccc3c(c2)OCO3)[C@H]1OC(=O)Nc1ccc2c(c1)OCO2` : -5.25 (inactive)

Documented z-score of `O=C1c2ccccc2[C@](Cc2ccccc2I)(C(=O)NCCN2CCOCC2)[C@H](c2ccc(CO)cc2)N1Cc1ccccc1Cl` : -4.29 (inactive)

Documented z-score of O=C1C2C=CC(C(O)c3cccc4ccccc34)N(Nc3ccccc3F)C2C(=O)N1c1ccccc1 (stereo unspecified) : -3.52 (inactive)

Documented z-score of `COC(=O)[C@@]1(CCC(=O)OC(C)(C)C)N=C(c2ccc(OCCCO)cc2)O[C@H]1c1ccccc1N=[N+]=[N-]` : -2.14 (inactive)

----------
Tested on: Sam68 (KHDRBS1)
PROTOCOL SUMMARY: Sam68 small-molecule binders, primary screen, biochemical, small-molecule microarray, 635 nm fluorescence (AID 1125);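 note: score merges 667 nm channel intensity with signal to noise over triplicate slides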
CONDITIONS: small-molecule microarray binding, higher = more signal
Reported composite z-score values follow for various molecules

Please review the following examples before continuing.
{"SMILES INPUT": "COC(=O)[C@@]1(Cc2ccc(F)cc2)[C@H]2c3cc(C(=O)N(C)C)n(Cc4ccc(Cl)c(C(F)(F)F)c4)c3C[C@H]2CN1C(=O)c1ccccc1", "OBSERVED MEASUREMENT": 1.31}
{"SMILES INPUT": "C=CCNC(=O)[C@@H]1[C@H]2C(=O)O[C@H](c3ccccc3)[C@H](c3ccccc3)N2[C@H](c2ccc(OCCO)cc2)[C@@]12C(=O)Nc1ccc(C#CCC(C(=O)OC)C(=O)OC)cc12", "OBSERVED MEASUREMENT": 1.29}

Now let's try a different one.
Documented composite z-score of `CCOC(=O)C[C@H]1[C@H](OC(=O)c2ccc(C(=O)c3ccccc3)cc2)[C@@H](NC(=O)CC(C)C)c2cc(OCCCO)ccc2N1C(=O)c1ccc2ccccc2n1` : 1.29

----------
STUDY SYSTEM: Epidermal growth factor receptor (Homo sapiens)
PROTOCOL SUMMARY: EGFR binders on small-molecule microarrays, primary screen, biochemical, small-molecule microarray, 635 nm fluorescence (AID 1104);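 note: score merges 667 nm emission intensity with spot signal to noise over triplicate slides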
CONDITIONS: EGFR binding, higher = more signal
Reported composite z-score values follow for various compounds
Reply briefly: the number, and no unit.

{"COMPOUND": "[N-]=[N+]=NCc1ccccc1C[C@]1(C(=O)N2CCCCC2)N=C(c2ccc(OCCCO)cc2)O[C@H]1c1ccccc1N=[N+]=[N-]", "composite z-score": 0.26}
{"COMPOUND": "C=C(C(=O)CC[C@@H](OC(=O)c1cccnc1)c1ccccc1OCCO)C(C)C", "composite z-score": 0.029}
{"COMPOUND": "Cc1ccccc1C(O)C1C=CC2C(=O)N(c3ccccc3)C(=O)C2N1Nc1ccc(C(C)C)cc1 (centres undefined)", "composite z-score": 0.304}
{"COMPOUND": "CO[C@H]1O[C@H](CO)[C@@H](OC(=O)Nc2ccc(C(F)(F)F)cc2)[C@H](OC(=O)Nc2ccc3c(c2)OCO3)[C@@H]1OC(=O)Nc1ccc2c(c1)OCO2", "composite z-score": 0.587}
{"COMPOUND": "COCCOC(=O)N1C(=O)[C@@]2(c3cc(C#Cc4ccc(OC)cc4)ccc31)[C@H](c1ccccc1OCCO)N1[C@H](c3ccccc3)[C@H](c3ccccc3)OC(=O)[C@H]1[C@@H]2C(=O)NC[C@H](O)c1ccccc1", "composite z-score": 0.544}

Documented composite z-score of O=C1C2C=CC(C(O)Cc3ccccc3)N(n3cnnc3)C2C(=O)N1Cc1ccccc1 (centres undefined) : -0.216

Documented composite z-score of O=C1OCCC/C=C\[C@H]2OC34C=CCN(Cc5ccccc5)C(=O)[C@H]3N(CCCO)C(=O)[C@@H]4C12 (some centres undefined) : -1.55

Documented composite z-score of `Cc1ccc(S[C@]2(C(=O)NCCCN(C)C)CC(=O)N(Cc3ccccc3C(F)(F)F)[C@@H]2c2ccc(CO)cc2)cc1` : -0.636

Documented composite z-score of C=C(C)[C@@H]1CC=C(C(O)C2C=CC3C(=O)N(c4ccccc4)C(=O)C3N2Nc2ccccc2)CC1 (some centres undefined) : -0.747

Documented composite z-score of `COCCOC(=O)N1C(=O)[C@@]2(c3cc(C#CCC(C(=O)OC)C(=O)OC)ccc31)[C@H](C(=O)Nc1nc3ccccc3s1)[C@H]1C(=O)O[C@H](c3ccccc3)[C@H](c3ccccc3)N1[C@@H]2c1ccccc1OCCO` : 0.231

Documented composite z-score of `CC(C)C(=C=CC[C@@H](O)c1ccc(OCCO)cc1)C[C@@H](O)c1ccccn1` : 0.124

Documented composite z-score of `C=C(COC)/C(=C/C[C@@H](OC(C)=O)c1ccc(OCCO)cc1)c1cnc2ccccc2c1` : 0.824

Documented composite z-score of `C=CCNC(=O)[C@@H]1[C@H]2C(=O)O[C@H](c3ccccc3)[C@H](c3ccccc3)N2[C@H](c2ccc(O)cc2)[C@@]12C(=O)Nc1ccc(C#CCNC(N)=O)cc12` : -0.219

Documented composite z-score of `C[N+](C)(C)CCCCNC(=O)[C@H]1C[C@H]2C(=O)N3CCC[C@H]3C(=O)N2[C@H]1c1cccc(OCCO)c1` : -0.142
